target: T1, human BACE1 ECD; assay: Octet, pH 7.5
T1 construct: analyte of the Octet assay (200 nM) and enzyme of the first short substrate assay; also called human BACE1 extracellular domain
T1 sequence (single chain, as listed by the source limits assumed): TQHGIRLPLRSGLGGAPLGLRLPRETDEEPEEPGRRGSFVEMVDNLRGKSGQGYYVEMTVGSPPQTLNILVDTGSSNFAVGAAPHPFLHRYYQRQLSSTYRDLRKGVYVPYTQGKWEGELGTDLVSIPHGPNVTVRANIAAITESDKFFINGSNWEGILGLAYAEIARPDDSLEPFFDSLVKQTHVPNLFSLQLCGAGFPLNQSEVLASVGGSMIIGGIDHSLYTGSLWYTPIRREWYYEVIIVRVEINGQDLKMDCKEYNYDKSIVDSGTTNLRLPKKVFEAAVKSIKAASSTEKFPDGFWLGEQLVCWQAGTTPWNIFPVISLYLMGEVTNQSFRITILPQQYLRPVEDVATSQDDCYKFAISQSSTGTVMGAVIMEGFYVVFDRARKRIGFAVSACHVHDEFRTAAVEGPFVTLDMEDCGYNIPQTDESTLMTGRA
Kd under 0.4 nM gets YES, anything at or over 0.4 nM gets NO.

[[record]]
binder = "6311 (antibody, V domains shown, anti-BACE1 IgG) VH: QLQLQESGPGLVKPSETLSLTCTVSGGSISWSSYYWSWIRQPPGKGLEWIGSIYRSGRTYYNPSLKSRVTISVDTSKNQFSLKLSSVTAADTAVYYCARVGHGINYFDLWGRGTLVTVSS VL: EIVLTQSPATLSLSPGERATLSCRASQSVSSYLAWYQQKPGQAPRLLIYDASNRATGIPARFSGSGSGTDFTLTISSLEPEDFAVYYCQQSLTWPPRTFGGGTKVEIK"
class_label = "YES"

[[record]]
binder = "6310 (antibody, V domains shown, anti-BACE1 IgG) VH: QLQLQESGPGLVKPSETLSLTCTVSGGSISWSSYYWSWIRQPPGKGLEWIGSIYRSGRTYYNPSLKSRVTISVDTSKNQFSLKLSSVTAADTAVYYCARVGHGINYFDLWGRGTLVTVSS VL: EIVLTQSPATLSLSPGERATLSCRASQSVSSYLAWYQQKPGQAPRLLIYDASNRATGIPARFSGSGSGTDFTLTISSLEPEDFAVYYCQQSVTWPPRTFGGGTKVEIK"
class_label = "NO"

[[record]]
binder = "6305 (antibody, V domains shown, anti-BACE1 IgG) VH: QVQLVQSGAEVKKPGSSVKVSCKASGGTLSGYAISWVRQAPGQGLEWMGNIIPGFGTANYAQKSQGRVTITADESTSTAYMELSSLRSEDTAVYYCARSGGTRYGMLDVWGQGTMVTVSS VL: EIVLTQSPATLSVSPGERATLSCRASQSVGSNLAWYQQKPGQAPRLLIYGASTRATGIPARFSGSGSGTEFTLTISSLQSEDFAVYYCQQSFVWPPRTFGGGTKVEIK"
class_label = "NO"

[[record]]
binder = "6314 (antibody, V domains shown, anti-BACE1 IgG) VH: QLQLQESGPGLVKPSETLSLTCTVSGGSISRGSYYWGWIRQPPGKGLEWIGMIYYSGSTWYNPSLKSRVTISVDTSKNQFSLKLSSVTAADTAVYYCARVGHGVSYFDLWGRGTLVTVSS VL: EIVLTQSPATLSLSPGERATLSCRASQSVSSYLAWYQQKPGQAPRLLIYDASNRATGIPARFSGSGSGTDFTLTISSLEPEDFAVYYCQQSIVWPPRTFGGGTKVEIK"
class_label = "YES"

[[record]]
binder = "6303 (antibody, V domains shown, anti-BACE1 IgG) VH: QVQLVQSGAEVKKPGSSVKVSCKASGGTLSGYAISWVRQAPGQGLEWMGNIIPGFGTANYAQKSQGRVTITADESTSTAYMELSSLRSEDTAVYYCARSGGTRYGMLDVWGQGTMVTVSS VL: EIVMTQSPATLSVSPGERATLSCRASQSVSSNLAWYQQKPGQAPRLLIFGASTRATGIPARFSGSGSGTEFTLTISSLQSEDFAVYYCQQLLTWPPRTFGGGTKVEIK"
class_label = "YES"

[[record]]
binder = "6315 (antibody, V domains shown, anti-BACE1 IgG) VH: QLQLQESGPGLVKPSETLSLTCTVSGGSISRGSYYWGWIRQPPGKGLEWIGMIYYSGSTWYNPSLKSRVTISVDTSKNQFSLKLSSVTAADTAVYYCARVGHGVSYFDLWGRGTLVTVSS VL: EIVLTQSPATLSLSPGERATLSCRASQSVSSYLAWYQQKPGQAPRLLIYDASKRATGIPARFSGSGSGTDFTLTISSLEPEDFAVYYCQQSLVWPPRTFGGGAKVEIK"
class_label = "YES"

[[record]]
binder = "6308 (antibody, V domains shown, anti-BACE1 IgG) VH: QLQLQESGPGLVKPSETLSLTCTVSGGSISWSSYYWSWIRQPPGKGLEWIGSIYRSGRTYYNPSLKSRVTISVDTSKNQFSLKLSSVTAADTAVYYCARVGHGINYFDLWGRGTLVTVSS VL: EIVLTQSPATLSLSPGERATLSCRASQSVSSYLAWYQQKPGQAPRLLIYDASKRATGIPARFSGSGSGTDFTLTISSLEPEDFAVYYCQQSLVWPPRTFGGGTKVEIK"
class_label = "YES"

[[record]]
binder = "6307 (antibody, V domains shown, anti-BACE1 IgG) VH: QLQLQESGPGLVKPSETLSLTCTVSGGSISWSSYYWSWIRQPPGKGLEWIGSIYRSGRTYYNPSLKGRVTISVDTSKNQFSLKLSSVTAADTAVYYCARVGHGINYFDLWGRGTLVTVSS VL: EIVLTQSPATLSLSPGERATLSCRASQSVSSYLAWYQQKPGQAPRLLIYDASNRATGIPARFSGSGSGTDFTLTISSLEPEDFAVYYCQQSIVWPPRTFGGGTKVEIK"
class_label = "YES"

[[record]]
binder = "6309 (antibody, V domains shown, anti-BACE1 IgG) VH: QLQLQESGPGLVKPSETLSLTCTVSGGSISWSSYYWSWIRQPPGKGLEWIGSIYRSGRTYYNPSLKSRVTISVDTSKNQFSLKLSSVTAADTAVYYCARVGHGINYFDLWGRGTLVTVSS VL: EIVLTQSPATLSLSPGERATLSCRASQSVSSYLAWYQQKPGQAPRLLIYDASNRATGIPARFSGSGSGTDFTLTISSLEPEDFAVYYCQQSITWPPRTFGGGTKVEIK"
class_label = "YES"

